target: T1, His-tagged cynomolgus monkey TIGIT (Acro Biosystems #TIT-05223) (cynomolgus monkey, UniProt A0A7N9I9V4 89-209); assay: SPR (Carterra LSA), scFv-Fc captured, His-TIGIT analyte; repeat
T1 construct: Bought protein; also called cyno TIGIT; cynomolgus TIGIT; not shown: His tag
T1 sequence (A0A7N9I9V4 entry or part of it): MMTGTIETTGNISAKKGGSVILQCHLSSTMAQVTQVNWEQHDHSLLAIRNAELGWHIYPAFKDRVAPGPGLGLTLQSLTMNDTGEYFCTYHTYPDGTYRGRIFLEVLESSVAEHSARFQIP
Parameter Measured: Kd (nM)
Supply the numeric figure in nM, leaving out any unit text.

| Binder | Kd / nM |
| --- | --- |
| 43586p1.2.B2 (scFv, V domains shown) VH: EMQLLESGGGLVQPGGSLRLSCAASGFTFDDYVMSWVRQAPGKGLEWVSLINWNGDKTYYADSVKGRFTISRDNSKNTLYLQMNSLRAEDTAIYYCAKHWIVFQYGMDVWGQGTTVTVSS VL: QSVLTQPPSASGTPGQRVTISCSGSISNIETKYVSWYQQLPGTAPKLLIYNSDQRPSGVPDRFSGSKSGTSASLAISGLQSEDEADYYCVSWDASLKSWVFGGGTKLTVL | 1.8 |
| 43586p2.G10 (scFv, V domains shown) VH: EVQLLESGGGLVQPGGSLRLSCAASGFTFDDYVMSWVRQAPGKGLEWVSLINWSGGTTYYADSVKGRFTISRDNSKNTLYLQMNSLRAEDTAVYYCAKHWIVYQYGMDVWGQGTTVTVSS VL: QSVLTQPSSASGTPGQRVTISCSGTISNIETKYVSWYKYVSWYQQLPGTAPKLLIYNNVQRPSGVPDRFSGSQSGTSASLAISGLQSEDEAHYYCASWEGGLNSWVFGGGTKLTVL | 3.7 |

In the following, a different binder is considered.
Task item: Any idea what Kd was measured for 43586p1.2.C11 (scFv, V domains shown) VH: EVQLLESGGGLVQPGGSLRLSCAASGFTFDDYVMSWVRQAPGKGLEWVSLINWNGDKTYCADSVKGRFTISRDNSKNTLYLQMNSLRAEDTAIYYCAKHWIVFQYGMDVWGQGTTVTVSS VL: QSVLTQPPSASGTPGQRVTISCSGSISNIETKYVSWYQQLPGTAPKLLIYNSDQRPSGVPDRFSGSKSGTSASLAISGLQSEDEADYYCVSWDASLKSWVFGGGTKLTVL ?
Reply: 1.9
